- Tgt: T1, soluble heterodimeric hCD3ε/δ.mFc protein (human)
- T1 construct: also called soluble human CD3; soluble heterodimeric CD3 protein
- T1 chain 1: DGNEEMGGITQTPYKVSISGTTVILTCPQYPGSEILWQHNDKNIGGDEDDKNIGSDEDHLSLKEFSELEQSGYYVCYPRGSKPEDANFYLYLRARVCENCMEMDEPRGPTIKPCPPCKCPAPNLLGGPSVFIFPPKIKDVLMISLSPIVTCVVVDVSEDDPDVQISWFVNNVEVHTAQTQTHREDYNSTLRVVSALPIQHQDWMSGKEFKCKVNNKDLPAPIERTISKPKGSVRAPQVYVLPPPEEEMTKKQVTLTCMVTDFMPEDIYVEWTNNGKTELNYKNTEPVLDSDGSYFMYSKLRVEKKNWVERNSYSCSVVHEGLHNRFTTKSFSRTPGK
- T1 chain 2: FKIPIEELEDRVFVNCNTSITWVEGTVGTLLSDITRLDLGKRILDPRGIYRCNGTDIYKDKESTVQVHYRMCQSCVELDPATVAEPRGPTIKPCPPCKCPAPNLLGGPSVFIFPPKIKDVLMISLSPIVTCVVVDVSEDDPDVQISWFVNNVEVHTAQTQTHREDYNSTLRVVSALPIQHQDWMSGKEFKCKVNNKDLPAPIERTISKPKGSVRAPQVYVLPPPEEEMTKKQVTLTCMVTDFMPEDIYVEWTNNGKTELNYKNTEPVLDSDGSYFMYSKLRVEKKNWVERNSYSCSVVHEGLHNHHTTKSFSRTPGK
- Procedure Text: SPR MASS-1, 37 C, antigen-capture (hCD3ε/δ.mFc captured), antibody injected
Assay Endpoint: koff

Exercise: Fill in reported koff for this entry: BSPSMA/CD3-800 (bispecific antibody, IgG4, V domains shown, modified (chimeric) IgG4 Fc domain; also called PSMA-VH-11810 x CD3-VH-G8) VH 1: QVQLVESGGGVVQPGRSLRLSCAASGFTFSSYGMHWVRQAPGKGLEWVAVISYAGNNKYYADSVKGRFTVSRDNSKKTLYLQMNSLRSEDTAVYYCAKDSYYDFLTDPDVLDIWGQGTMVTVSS VH 2: EVQLVESGGGLVQPGRSLRLSCAASGFTFDDYSMHWVRQAPGKGLEWVSGISWNSGSIGYADSVKGRFTISRDNAKNSLYLQMNSLRAEDTALYYCAKYGSGYGKFYHYGLDVWGQGTTVTVSS VL: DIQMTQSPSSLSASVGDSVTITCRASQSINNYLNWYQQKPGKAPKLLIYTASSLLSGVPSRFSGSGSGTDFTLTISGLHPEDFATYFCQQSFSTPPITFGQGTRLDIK
Solution: 0.00115 s⁻¹
